# measurement_target: type V tartrate-resistant acid phosphatase (TRAP) protein, immobilised on CM5 sensor chip
# assay_info: SPR, TRAP on CM5 chip, steady-state response vs concentration fit
parameter_measured: Kd (µM)
Number in µM, nothing else.

Item under review: TPLSYLKGLVTVG [TRAP-binding peptide (TBP)] . Reported Kd?
200

Taken from patent US20170072062A1.
